Recorded IC50 values for a group of molecules are listed next.
Biological target: c-Kit(V654A) (Homo sapiens, UniProt P10721, V654A)
Construct: recombinant human c-Kit, amino acids 544-end containing the V654A mutation; GST (N)
Sequence (P10721 544-976 V654A): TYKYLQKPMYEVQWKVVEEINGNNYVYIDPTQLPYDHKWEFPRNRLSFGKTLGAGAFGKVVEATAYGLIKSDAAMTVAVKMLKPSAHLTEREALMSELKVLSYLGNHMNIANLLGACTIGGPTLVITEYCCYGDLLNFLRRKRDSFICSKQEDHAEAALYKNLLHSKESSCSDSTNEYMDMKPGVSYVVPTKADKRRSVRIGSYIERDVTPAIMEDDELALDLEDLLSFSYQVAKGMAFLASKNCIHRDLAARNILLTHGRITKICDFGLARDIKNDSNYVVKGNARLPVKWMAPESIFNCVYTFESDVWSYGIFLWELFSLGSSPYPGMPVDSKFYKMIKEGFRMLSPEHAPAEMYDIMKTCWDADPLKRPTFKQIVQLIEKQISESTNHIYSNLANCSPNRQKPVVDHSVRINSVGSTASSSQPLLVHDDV
Assay: c-Kit(V654A) assay (33P-ATP filter binding kinase assay)
Conditions: recombinant human c-Kit aa 544-end V654A, ATP 200 μM
Enter your answer as a number in nM; do not include the unit.

Worked examples, 5 molecules total:
{"MOLECULE": "CN(C)CCOc1ccn2c(-c3cc(NCc4ccc(-c5cnn(C)c5)cc4)ncn3)cnc2c1", "READOUT LABEL": "IC50", "RECORDED MEASUREMENT": 11}
{"MOLECULE": "CN1CCO[C@@H](COc2ccn3c(-c4cc(NCc5ccc(-c6cnn(C)n6)cc5)ncn4)cnc3c2)C1", "READOUT LABEL": "IC50", "RECORDED MEASUREMENT": 3.6}
{"MOLECULE": "Cn1cc(-c2ccc(CNc3cc(-c4cnc5cc(OCCCN6CCCCC6)ccn45)ncn3)cc2)cn1", "READOUT LABEL": "IC50", "RECORDED MEASUREMENT": 4.3}
{"MOLECULE": "Cn1cc(-c2ccc(CNc3cc(-c4cnc5cc(OCCCO)ccn45)ncn3)cc2)cn1", "READOUT LABEL": "IC50", "RECORDED MEASUREMENT": 7.5}
{"MOLECULE": "COc1ccn2c(-c3cc(NCc4ccc(-c5ncc(C)o5)cc4)ncn3)cnc2c1", "READOUT LABEL": "IC50", "RECORDED MEASUREMENT": 6.3}

Quick one: IC50 for `Cn1ncc(-c2ccc(CNc3cc(-c4cnc5cc(OCCCN6CCN(C7CC7)CC6)ccn45)ncn3)cc2)n1` ?
6.5

Quick one: IC50 for `Cn1cc(-c2ccc(CNc3cc(-c4cnc5cc(OC6CCOCC6)ccn45)ncn3)cc2)cn1` ?
22

Quick one: IC50 for `COc1ccn2c(-c3cc(NCc4ccc(-c5cnc(C)nc5N)cc4)ncn3)cnc2c1` ?
260

###

Recorded pIC50 values for a group of compounds are listed next.
Biological target: c-Kit(V654A) (Homo sapiens, UniProt P10721, V654A)
Construct: recombinant human c-Kit, amino acids 544-end containing the V654A mutation; GST (N)
Experiment: c-Kit(V654A) assay (33P-ATP filter binding kinase assay)
Settings: recombinant human c-Kit aa 544-end V654A, ATP 200 μM
Just the number, please; pIC50 means minus log10 of the concentration in mol/L.

{"COMPOUND": "c1cn(-c2ccc(CNc3cc(-c4cnc5cc(OCC6CCN(C7COC7)CC6)ccn45)ncn3)cc2)nn1", "pIC50": 7.60}
{"COMPOUND": "CN1CCO[C@@H](COc2ccn3c(-c4cc(NCc5ccc(-c6cnn(C)c6)cc5)ncn4)cnc3c2)C1", "pIC50": 8.22}
{"COMPOUND": "Cn1ncc(-c2ccc(CNc3cc(-c4cnc5cc(OCCCN6CCCC6)ccn45)ncn3)cc2)n1", "pIC50": 8.55}
{"COMPOUND": "Cn1cc(-c2ccc(CNc3cc(-c4cnc5cc(OCCN6CCn7nncc7C6)ccn45)ncn3)cc2)cn1", "pIC50": 8.11}
{"COMPOUND": "Cn1cc(-c2ccc(CNc3cc(-c4cnc5cc(OCCN6CCC(C)(F)CC6)ccn45)ncn3)cc2)cn1", "pIC50": 7.85}

Quick one: pIC50 for `COc1ccn2c(-c3cc(NCc4ccc(N5CC6CCC(C5)O6)cc4)ncn3)cnc2c1` ?
7.26

###

Target: GIST430/654 cell line expressing mutated constitutively active cKIT receptor tyrosine kinase (Δ560-576 deletion and V654A point mutation) (Homo sapiens, UniProt P10721, DEL560-576/V654A)
Construct: endogenous in cells
Sequence (P10721 with tags, fused parts or gaps DEL560-576/V654A): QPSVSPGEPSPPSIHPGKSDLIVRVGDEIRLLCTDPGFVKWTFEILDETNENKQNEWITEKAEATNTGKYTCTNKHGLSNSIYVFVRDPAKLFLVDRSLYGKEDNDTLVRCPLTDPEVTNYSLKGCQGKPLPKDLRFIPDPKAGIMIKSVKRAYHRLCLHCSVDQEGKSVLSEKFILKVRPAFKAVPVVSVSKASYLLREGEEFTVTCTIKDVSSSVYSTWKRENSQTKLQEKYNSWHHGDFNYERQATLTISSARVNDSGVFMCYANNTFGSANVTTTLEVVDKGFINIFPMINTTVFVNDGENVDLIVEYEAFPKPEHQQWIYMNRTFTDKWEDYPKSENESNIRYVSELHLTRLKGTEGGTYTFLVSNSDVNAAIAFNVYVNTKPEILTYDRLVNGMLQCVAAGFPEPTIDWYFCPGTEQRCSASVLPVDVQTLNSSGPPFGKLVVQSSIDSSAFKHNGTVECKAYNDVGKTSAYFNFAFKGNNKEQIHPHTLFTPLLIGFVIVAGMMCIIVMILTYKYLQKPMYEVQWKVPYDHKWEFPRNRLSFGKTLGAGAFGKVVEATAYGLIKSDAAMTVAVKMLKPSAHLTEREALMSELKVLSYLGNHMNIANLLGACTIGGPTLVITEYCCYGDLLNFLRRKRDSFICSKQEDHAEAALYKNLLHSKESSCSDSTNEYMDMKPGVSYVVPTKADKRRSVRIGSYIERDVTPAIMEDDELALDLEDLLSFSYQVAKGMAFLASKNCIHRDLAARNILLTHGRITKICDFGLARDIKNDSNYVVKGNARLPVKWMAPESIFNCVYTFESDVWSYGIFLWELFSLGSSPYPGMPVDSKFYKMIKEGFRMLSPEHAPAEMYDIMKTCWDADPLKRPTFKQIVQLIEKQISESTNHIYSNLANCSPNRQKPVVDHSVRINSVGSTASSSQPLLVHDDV
Experiment: Cellular cKIT autophosphorylation (phospho-Y307-cKIT, Luminex bead assay) in GIST430/654 cells
Details: compounds 45 min, read-out: GIST 430/654 IC50
pIC50: −log10 of the molar value.
So basically: pIC50 at 7 or higher? That is 1. Lower than 7? That is 0.

Examples from the recorded data:
{"STRUCTURE SMILES STRING": "Cn1cc(-c2ccc(CNc3cc(-c4cnc5cc(OCCCN6CCC6)ccn45)ncn3)cc2)cn1", "GROUP": 1}
{"STRUCTURE SMILES STRING": "Cn1cc(-c2ccc(CNc3cc(-c4cnc5cc(OCCN6CCC(F)(F)CC6)ccn45)ncn3)cc2)cn1", "GROUP": 0}

Given `Cn1cc(-c2ccc(CNc3cc(-c4cnc5cc(OCCCNC6COC6)ccn45)ncn3)cc2)cn1` , state whether its pIC50 is at least 7.
1

Given `Cn1ncc(-c2ccc(CNc3cc(-c4cnc5cc(OCCCS(C)(=O)=O)ccn45)ncn3)cc2)n1` , state whether its pIC50 is at least 7.
0

###

Biological target: GIST430/654 cell line expressing mutated constitutively active cKIT receptor tyrosine kinase (Δ560-576 deletion and V654A point mutation) (Homo sapiens, UniProt P10721, DEL560-576/V654A)
Construct: endogenous in cells
Assay: Cellular cKIT autophosphorylation (phospho-Y307-cKIT, Luminex bead assay) in GIST430/654 cells
Conditions: compounds 45 min, read-out: GIST 430/654 IC50
READOUT LABEL: pIC50
Just the number, please; pIC50 means minus log10 of the concentration in mol/L.

Worked examples, 4 molecules total:
{"MOLECULE": "CN1CCOC[C@@H]1COc1ccn2c(-c3cc(NCc4ccc(-c5cnn(C)c5)cc4)ncn3)cnc2c1", "pIC50": 7.28}
{"MOLECULE": "CN(CCOc1ccn2c(-c3cc(NCc4ccc(-c5cnn(C)c5)cc4)ncn3)cnc2c1)CC(F)(F)F", "pIC50": 6.64}
{"MOLECULE": "CC(COc1ccn2c(-c3cc(NCc4ccc(-c5cnn(C)c5)cc4)ncn3)cnc2c1)CN1CCCC1 (centres unmarked)", "pIC50": 7.06}
{"MOLECULE": "COc1cc2ncc(-c3cc(NCc4ccc(-c5cnn(C)c5)cc4)ncn3)n2cc1F", "pIC50": 6.62}

Quick one: pIC50 for `Cn1cc(-c2ccc(CNc3cc(-c4cnc5cc(OCCC6(N)COC6)ccn45)ncn3)cc2)cn1` ?
6.89

Quick one: pIC50 for `COC1(C)CCN(CCOc2ccn3c(-c4cc(NCc5ccc(-c6cnn(C)c6)cc5)ncn4)cnc3c2)CC1` ?
6.85

Quick one: pIC50 for `Cc1cn(-c2ccn3c(-c4cc(NCc5ccc(-c6cnn(C)c6)cc5)ncn4)cnc3c2)cn1` ?
7.20

Quick one: pIC50 for `Cn1cc(-c2ccc(CNc3cc(-c4cnc5cc(OCCc6nccn6C)ccn45)ncn3)cc2)cn1` ?
7.20

###

Target: c-Kit(V654A) (Homo sapiens, UniProt P10721, V654A)
Construct: recombinant human c-Kit, amino acids 544-end containing the V654A mutation; GST (N)
Test: c-Kit(V654A) assay (33P-ATP filter binding kinase assay)
Details: recombinant human c-Kit aa 544-end V654A, ATP 200 μM
Note to self: use T only for IC50 readings below 0.007 µM; a reading exactly at 0.007 µM still gets F.

Examples from the recorded data:
{"STRUCTURE SMILES STRING": "Cn1cc(-c2ccc(CNc3cc(-c4cnc5cc(OCCN6CC7CC(C6)O7)ccn45)ncn3)cc2)cn1", "GROUP": "F"}
{"STRUCTURE SMILES STRING": "CC1(F)CCN(CCCOc2ccn3c(-c4cc(NCc5ccc(-c6cocn6)cc5)ncn4)cnc3c2)CC1", "GROUP": "T"}
{"STRUCTURE SMILES STRING": "Cn1cc(-c2ccc(CNc3cc(-c4cnc5cc(-c6cnn(C)c6)ccn45)ncn3)cc2)cn1", "GROUP": "T"}
{"STRUCTURE SMILES STRING": "COc1cc2ncc(-c3cc(NCc4ccc(-c5cnn(C)c5)cc4)ncn3)n2cc1F", "GROUP": "F"}
{"STRUCTURE SMILES STRING": "Cn1cc(-c2ccc(CNc3cc(-c4cnc5cc(OCCCN6CC(F)C6)ccn45)ncn3)cc2)cn1", "GROUP": "F"}
{"STRUCTURE SMILES STRING": "Fc1cc(N2CCCC2)ncc1CNc1cc(-c2cnc3ccccn23)ncn1", "GROUP": "T"}

IC50 under 0.007 µM? Item: `Cc1noc(C2CN(CCOc3ccn4c(-c5cc(NCc6ccc(-c7cnn(C)c7)cc6)ncn5)cnc4c3)C2)n1`
F

IC50 under 0.007 µM? Item: `COc1ccn2c(-c3cc(NCc4ccc(-c5cncn5C)cc4)ncn3)cnc2c1`
F

IC50 under 0.007 µM? Item: `Cn1cc(-c2ccc(CNc3cc(-c4cnc5cc(OCc6ccccc6)ccn45)ncn3)cc2)cn1`
F

IC50 under 0.007 µM? Item: `Cn1cc(-c2ccc(CNc3cc(-c4cnc5cc(OCCN6CC(F)C6)ccn45)ncn3)cc2)cn1`
F

IC50 under 0.007 µM? Item: `Cn1cc(-c2ccc(CNc3cc(-c4cnc5cc(OCC6CCN(CC#N)CC6)ccn45)ncn3)cc2)cn1`
F

IC50 under 0.007 µM? Item: `Cn1ncc(-c2ccc(CNc3cc(-c4cnc5cc(OCC6CCN(CC(F)F)CC6)ccn45)ncn3)cc2)n1`
F
